Reported values of IC50 for individual entries
Biological target: IDH1 R132H (Homo sapiens, UniProt O75874, R132H)
Sequence (O75874 whole entry R132H): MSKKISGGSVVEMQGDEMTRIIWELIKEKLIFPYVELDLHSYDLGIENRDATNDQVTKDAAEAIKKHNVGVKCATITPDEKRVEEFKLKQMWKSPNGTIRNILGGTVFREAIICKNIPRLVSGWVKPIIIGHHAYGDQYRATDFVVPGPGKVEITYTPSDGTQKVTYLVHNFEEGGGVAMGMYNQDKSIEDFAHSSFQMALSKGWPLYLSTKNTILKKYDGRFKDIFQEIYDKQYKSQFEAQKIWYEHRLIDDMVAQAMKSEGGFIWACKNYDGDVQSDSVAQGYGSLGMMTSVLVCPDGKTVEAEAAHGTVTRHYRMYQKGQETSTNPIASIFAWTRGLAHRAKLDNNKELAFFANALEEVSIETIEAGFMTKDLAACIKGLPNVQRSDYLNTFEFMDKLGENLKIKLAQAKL
Assay: High Throughput Screening (HTS) for IDH1 R132H inhibitors (resazurin/NADPH fluorescence assay)
Assay type: biochemical
Conditions: IDH1m; assay similar to Example 1; class symbols
assay_readout: IC50

>>> df
                            smiles_notation  result_value
0  CCCCc1ccc(NS(=O)(=O)c2ccc(C)c(C(=O)N3CCN(c4ccccc4Oc4ccccc4)CC3)c2)cc1    1 to 50 µM
1  Cc1ccc(S(=O)(=O)Nc2ccccc2F)cc1C(=O)N1CCN(c2ccccn2)CC1       > 50 µM
2  CCCCc1ccc(NS(=O)(=O)c2ccc(C)c(C(=O)N3CCN(C(=O)OC(C)C)CC3)c2)cc1    1 to 50 µM
3  COc1ccccc1N1CCN(C(=O)c2cccc(S(=O)(=O)Nc3ccc(C(C)(C)C)cc3)c2)CC1    1 to 50 µM
4  CCCCc1ccc(NS(=O)(=O)c2ccc(C)c(C(=O)N3CCN(c4ccccc4OC)CC3)c2)c(N(C)C)c1    1 to 50 µM
5  CCCCc1ccc(NS(=O)(=O)c2ccc(C)c(C(=O)N3CCN(Cc4cc(C)c(C)cc4C)CC3)c2)cc1    1 to 50 µM
6  CCCCc1ccc(C(=O)Nc2cccc(C(=O)N3CCN(c4ccccc4OC)CC3)c2)cc1    1 to 50 µM
7  CCCCc1ccc(NS(=O)(=O)c2ccc(C)c(C(=O)N3CCN(CCCc4ccccc4)CC3)c2)cc1    1 to 50 µM

====

Biological target: IDH1 R132H (Homo sapiens, UniProt O75874, R132H)
Experiment: High Throughput Screening (HTS) for IDH1 R132H inhibitors (resazurin/NADPH fluorescence assay)
Format: biochemical
Settings: IDH1m; assay similar to Example 1; class symbols
assay_readout: IC50

>>> df
                             smiles_notation                              study_system  result_value
 0  CCCCc1ccc(OC(=O)Nc2ccc(C)c(C(=O)N3CCN(c4ccccc4OC)CC3)c2)cc1  IDH1 R132H (Homo sapiens, UniProt O75874, R132H)       > 50 µM
 1  COc1ccccc1N1CCN(C(=O)c2cc(S(=O)(=O)Nc3ccc(CCc4ccccc4)cc3)ccc2C)CC1  IDH1 R132H (Homo sapiens, UniProt O75874, R132H)    1 to 50 µM
 2  COCCOCOc1ccc(NS(=O)(=O)c2ccc(C)c(C(=O)N3CCN(c4ccccc4C)CC3)c2)cc1  IDH1 R132H (Homo sapiens, UniProt O75874, R132H)    1 to 50 µM
 3  C=Cc1ccc(S(=O)(=O)Nc2ccc(CCCC)cc2)cc1C(=O)N1CCN(c2ccccc2OC)CC1  IDH1 R132H (Homo sapiens, UniProt O75874, R132H)    1 to 50 µM
 4  CCCCc1ccc(NS(=O)(=O)c2cccc(C(=O)N3CCN(c4ccccn4)CC3)c2)cc1  IDH1 R132H (Homo sapiens, UniProt O75874, R132H)    1 to 50 µM
 5  CCCCc1ccc(NS(=O)(=O)c2ccc(C)c(C(=O)N3CCN(c4ccccc4C(C)C)CC3)c2)cc1  IDH1 R132H (Homo sapiens, UniProt O75874, R132H)    1 to 50 µM
 6  CCCCc1ccc(OC(=O)Nc2cccc(C(=O)N3CCN(c4ccccc4OC)CC3)c2)cc1  IDH1 R132H (Homo sapiens, UniProt O75874, R132H)       > 50 µM
 7  COc1ccccc1N1CCN(C(=O)c2cc(S(=O)(=O)Nc3ccc(CCN4CCCC4)cc3)ccc2C)CC1  IDH1 R132H (Homo sapiens, UniProt O75874, R132H)       > 50 µM
 8  CCCCc1ccc(NS(=O)(=O)c2ccc(C)c(C(=O)N3CCN(C(=O)NCC(C)C)CC3)c2)cc1  IDH1 R132H (Homo sapiens, UniProt O75874, R132H)    1 to 50 µM
 9  COc1ccccc1N1CCN(C(=O)c2cc(S(=O)(=O)Nc3ccccc3F)ccc2C)CC1  IDH1 R132H (Homo sapiens, UniProt O75874, R132H)       > 50 µM
10  Cc1cc(F)ccc1NS(=O)(=O)c1cccc(C(=O)N2CCN(c3ccccc3)CC2)c1  IDH1 R132H (Homo sapiens, UniProt O75874, R132H)       > 50 µM
11  CCCCc1ccc(NS(=O)(=O)c2ccc(C)c(C(=O)N3CCN(c4ccccc4Cl)CC3)c2)cc1  IDH1 R132H (Homo sapiens, UniProt O75874, R132H)        < 1 µM
12  CCCCc1ccc(NS(=O)(=O)c2ccc(C)c(C(=O)N3CCN(c4ccc(OC)cc4O)CC3)c2)cc1  IDH1 R132H (Homo sapiens, UniProt O75874, R132H)    1 to 50 µM
13  CCCCc1ccc(NS(=O)(=O)c2ccc(C)c(C(=O)N3CCN(c4c(C)cccc4C)CC3)c2)cc1  IDH1 R132H (Homo sapiens, UniProt O75874, R132H)    1 to 50 µM
14  CCCCc1ccc(NS(=O)(=O)c2ccc(C)c(C(=O)N3CCN(c4ccnc(N(C)C)c4)CC3)c2)cc1  IDH1 R132H (Homo sapiens, UniProt O75874, R132H)    1 to 50 µM
15  CCCCc1ccc(NS(=O)(=O)c2ccc(C)c(C(=O)N3CCCN(c4ccccc4F)CC3)c2)cc1  IDH1 R132H (Homo sapiens, UniProt O75874, R132H)    1 to 50 µM
16  CCCCc1ccc(NS(=O)(=O)c2ccc(C)c(C(=O)N3CCN(c4ccc(OC)c(F)c4)CC3)c2)cc1  IDH1 R132H (Homo sapiens, UniProt O75874, R132H)    1 to 50 µM
17  CCCCc1ccc(NS(=O)(=O)c2ccc(C)c(C(=O)N3CCN(c4ccncc4)CC3)c2)cc1  IDH1 R132H (Homo sapiens, UniProt O75874, R132H)    1 to 50 µM
18  CCCCc1ccc(NS(=O)(=O)c2ccc(C)c(C(=O)N3CCN(C(=O)OCC(C)C)CC3)c2)cc1  IDH1 R132H (Homo sapiens, UniProt O75874, R132H)    1 to 50 µM
19  COc1ccccc1NS(=O)(=O)c1cccc(C(=O)N2CCN(c3ccccc3OC)CC2)c1  IDH1 R132H (Homo sapiens, UniProt O75874, R132H)       > 50 µM
20  CCCCc1ccc(NS(=O)(=O)c2ccc(Cl)c(C(=O)N3CCN(C(C)=O)CC3)c2)cc1  IDH1 R132H (Homo sapiens, UniProt O75874, R132H)       > 50 µM
21  CCCCc1ccc(NS(=O)(=O)c2ccc(C)c(C(=O)N3CCN(c4ccccc4Br)CC3)c2)cc1  IDH1 R132H (Homo sapiens, UniProt O75874, R132H)    1 to 50 µM
22  CCCCc1ccc(NS(=O)(=O)c2ccc(C)c(C(=O)N3CCN(c4ccc(OCCC)cc4)CC3)c2)cc1  IDH1 R132H (Homo sapiens, UniProt O75874, R132H)    1 to 50 µM
23  COc1ccccc1N1CCN(C(=O)c2cccc(S(=O)(=O)Nc3ccccc3)c2)CC1  IDH1 R132H (Homo sapiens, UniProt O75874, R132H)       > 50 µM
24  COc1ccccc1NS(=O)(=O)c1cccc(C(=O)N2CCCN(c3ccccc3OC)CC2)c1  IDH1 R132H (Homo sapiens, UniProt O75874, R132H)       > 50 µM
25  COc1ccccc1NS(=O)(=O)c1cccc(C(=O)N2CCN(c3ccccc3)CC2)c1  IDH1 R132H (Homo sapiens, UniProt O75874, R132H)       > 50 µM
26  COc1ccccc1N1CCCN(C(=O)c2cccc(S(=O)(=O)Nc3ccc(C)cc3)c2)CC1  IDH1 R132H (Homo sapiens, UniProt O75874, R132H)       > 50 µM
27  CCCCc1ccc(NS(=O)(=O)c2ccc(C)c(C(=O)N3CCN(C(=O)OCc4ccccc4)CC3)c2)cc1  IDH1 R132H (Homo sapiens, UniProt O75874, R132H)    1 to 50 µM
28  CCCCc1ccc(NS(=O)(=O)c2ccc(C)c(C(=O)N3CCN(c4ccccc4CC)CC3)c2)cc1  IDH1 R132H (Homo sapiens, UniProt O75874, R132H)        < 1 µM
29  CCCCc1ccc(NS(=O)(=O)c2ccc(C)c(C(=O)N3CCN(C(=O)OCC)CC3)c2)cc1  IDH1 R132H (Homo sapiens, UniProt O75874, R132H)    1 to 50 µM
30  CCCCc1ccc(NS(=O)(=O)c2ccc(C)c(C(=O)N3CCN(c4ccccc4C)CC3)c2)cc1  IDH1 R132H (Homo sapiens, UniProt O75874, R132H)        < 1 µM
31  Cc1ccc(S(=O)(=O)Nc2ccc(Cl)cc2)cc1C(=O)N1CCN(c2ccccn2)CC1  IDH1 R132H (Homo sapiens, UniProt O75874, R132H)       > 50 µM
32  COc1ccccc1N1CCN(C(=O)c2cc(S(=O)(=O)Nc3ccc(C(C)(C)C)cc3)ccc2C)CC1  IDH1 R132H (Homo sapiens, UniProt O75874, R132H)    1 to 50 µM
33  CCCCc1ccc(NS(=O)(=O)c2ccc(C)c(C(=O)N3CCN(CCc4ccccc4)CC3)c2)cc1  IDH1 R132H (Homo sapiens, UniProt O75874, R132H)    1 to 50 µM
34  CCCc1ccc(NS(=O)(=O)c2ccc(C)c(C(=O)N3CCN(c4ccccc4OC)CC3)c2)cc1  IDH1 R132H (Homo sapiens, UniProt O75874, R132H)    1 to 50 µM
